biological target: Human CD3eg linker (human); experiment: SPR; fold vs parent H183/L072
Sequence (chain, as listed by the source limits assumed): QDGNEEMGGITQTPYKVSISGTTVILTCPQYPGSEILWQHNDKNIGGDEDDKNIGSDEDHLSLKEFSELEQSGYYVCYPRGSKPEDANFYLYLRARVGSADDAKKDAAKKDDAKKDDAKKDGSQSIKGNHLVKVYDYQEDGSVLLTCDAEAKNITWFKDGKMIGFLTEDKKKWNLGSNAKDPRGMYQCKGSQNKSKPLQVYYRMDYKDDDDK
READOUT_NAME: fold change of affinity (fold)
Give your result in fold as a bare value.

Example results:
Give the reported value of fold change of affinity for this record: H183/L072 VL P95R (antibody, name in Kabat numbering, V domains shown) VH: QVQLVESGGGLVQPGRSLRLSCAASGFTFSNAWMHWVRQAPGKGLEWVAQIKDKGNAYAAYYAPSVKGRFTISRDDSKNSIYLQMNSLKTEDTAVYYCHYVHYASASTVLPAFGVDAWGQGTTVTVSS VL: DIVMTQSPLSLPVTPGEPASISCQASQELVHMNRNTYLHWYQQKPGQAPRLLIYKVSNRFPGVPDRFSGSGSGTDFTLKISRVEAEDVGVYYCAQGTSVRFTFGQGTKLEIK
0

Give fold change of affinity for H183/L072 VL K50V (antibody, name in Kabat numbering, V domains shown) VH: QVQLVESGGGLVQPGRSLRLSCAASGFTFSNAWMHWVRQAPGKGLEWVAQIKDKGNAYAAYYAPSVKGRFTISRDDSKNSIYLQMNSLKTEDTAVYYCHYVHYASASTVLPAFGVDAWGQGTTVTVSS VL: DIVMTQSPLSLPVTPGEPASISCQASQELVHMNRNTYLHWYQQKPGQAPRLLIYVVSNRFPGVPDRFSGSGSGTDFTLKISRVEAEDVGVYYCAQGTSVPFTFGQGTKLEIK
0

Now examine the next entry.
In one line, give reported fold change of affinity of the entry H183/L072 VL Y32F (antibody, name in Kabat numbering, V domains shown) VH: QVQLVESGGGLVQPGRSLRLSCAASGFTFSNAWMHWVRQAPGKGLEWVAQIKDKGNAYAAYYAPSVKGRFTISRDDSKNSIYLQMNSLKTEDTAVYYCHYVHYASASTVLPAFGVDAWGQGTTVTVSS VL: DIVMTQSPLSLPVTPGEPASISCQASQELVHMNRNTFLHWYQQKPGQAPRLLIYKVSNRFPGVPDRFSGSGSGTDFTLKISRVEAEDVGVYYCAQGTSVPFTFGQGTKLEIK .
0
